assay procedure: Aqueous solubility of compound
Assay type: physicochemical
condition details: water (aqueous)
measurement type: solubility

**Query** What does the data say about its solubility? Entry: `CC(=O)Nc1nc2ccccn2c1-c1ccc(O)cc1`
**Result** > 800 µM

* * *

Species: Homo sapiens
assay procedure: Selectivity index, ratio of IC50 for USP1 (unknown origin) to IC50 for recombinant full length USP7 (unknown origin) using di-ubiquitin as substrate by fluorescence based assay
measurement type: Ratio IC50

Use the examples below as a reference point.
>  <query smiles>
Nc1nc2cc(C3CCNCC3)ccn2c1-c1ccc(O)cc1

>  <obs value>
> 2

$$$$
>  <query smiles>
Nc1nc2ccc(C(F)(F)F)cn2c1-c1ccc(O)cc1

>  <obs value>
> 2

$$$$
>  <query smiles>
Nc1nc2c(C(F)(F)F)cccn2c1-c1ccc(O)cc1

>  <obs value>
> 2

$$$$

**Query** I have this molecule here, `Nc1nc2ccccn2c1-c1ccc(O)cc1` , and I need its recorded Ratio IC50.
**Result** > 2

**Query** Follow-up entry: `Cc1cccn2c(-c3ccc(O)cc3)c(N)nc12`
**Result** > 2

**Query** Same lookup for `Cc1ccc2nc(N)c(-c3ccc(O)cc3)n2c1` , please.
**Result** > 2

**Query** Repeat for the following molecule: `CNc1nc2ccccn2c1-c1ccc(O)cc1`
**Result** > 2

**Query** Query `Nc1nc2cc(C(F)(F)F)ccn2c1-c1ccc(O)cc1` next
**Result** > 2
